- tested_target: rat EP4 receptor (Rattus norvegicus)
- Construct: its translated region was integrated into the expression vector pShooter (Invitrogen)
- Sequence (P43114 whole entry): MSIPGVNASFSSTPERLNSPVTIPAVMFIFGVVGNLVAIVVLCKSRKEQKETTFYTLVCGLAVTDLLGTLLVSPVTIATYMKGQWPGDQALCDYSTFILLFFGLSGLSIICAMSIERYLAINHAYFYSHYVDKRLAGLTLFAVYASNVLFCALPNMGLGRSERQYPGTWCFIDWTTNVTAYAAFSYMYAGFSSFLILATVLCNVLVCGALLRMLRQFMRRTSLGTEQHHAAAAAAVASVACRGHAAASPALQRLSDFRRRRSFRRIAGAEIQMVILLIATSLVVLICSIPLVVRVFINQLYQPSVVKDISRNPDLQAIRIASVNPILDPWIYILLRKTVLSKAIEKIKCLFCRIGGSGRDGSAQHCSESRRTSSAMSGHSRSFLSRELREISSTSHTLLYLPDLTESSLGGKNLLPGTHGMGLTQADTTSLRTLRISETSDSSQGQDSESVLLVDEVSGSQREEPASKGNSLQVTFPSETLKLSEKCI
- protocol_notes: Rat EP4 receptor antagonistic action by the reporter assay method
- condition: COS-7 cells expressing rat EP4 receptor, CRE-LUC reporter, PGE2 1×10^−8 mol/L; geometric mean of three cases; read-out: Intensity of EP4 Receptor Antagonistic Activity IC50
attribute_measured: IC50
Reply with the number and its unit after it.

{"columns": ["compound", "tested_target", "attribute_measured", "assay_result"],
 "data": [
  ["CC(C)(O)C#Cc1nc(Cl)n(CCOc2ccc(Cl)cc2)c1C(=O)NCC1CCC(C(=O)O)CC1 (centres unmarked) [Compound 39]", "rat EP4 receptor (Rattus norvegicus)", "IC50", "35 nM"],
  ["O=C(NCC1CCC(C(=O)O)CC1)c1c(C#CC2(O)CCCC2)nc(Cl)n1Cc1ccc(C(F)(F)F)cc1 (centres unmarked) [Compound 16]", "rat EP4 receptor (Rattus norvegicus)", "IC50", "7.3 nM"],
  ["COC(C)(C)C#Cc1nc(Cl)n(CCOc2ccc(Cl)cc2)c1C(=O)NCc1ccc(C(=O)O)cc1 [Compound 45]", "rat EP4 receptor (Rattus norvegicus)", "IC50", "5.1 nM"],
  ["CC(C)(O)C#Cc1nc(Cl)n(CCOc2ccc(Cl)cc2)c1C(=O)NCc1ccc(C(=O)O)cc1 [Compound 44]", "rat EP4 receptor (Rattus norvegicus)", "IC50", "17.5 nM"],
  ["Cc1ccc(Cn2c(Cl)nc(C#CC(C)(C)O)c2C(=O)NC[C@H]2CC[C@H](C(=O)O)CC2)cc1 [Compound 21]", "rat EP4 receptor (Rattus norvegicus)", "IC50", "26.4 nM"]
]}

query: What value of measured IC50 is listed for CC(C)(O)C#Cc1nc(Cl)n(Cc2ccc(C(F)(F)F)cc2)c1C(=O)NC[C@H]1CC[C@H](C(=O)O)CC1 [Compound 1] ?
result: 23.8 nM

query: Given the compound COC(C)(C)C#Cc1nc(Cl)n(Cc2ccc(OC(F)F)cc2)c1C(=O)NCc1ccc(C(=O)O)cc1 [Compound 52] , what is its reported IC50?
result: 7.9 nM

query: Dear colleague, I am looking for the recorded IC50 of the following compound: CC(C)(C#Cc1nc(Cl)n(CCOc2ccc(Cl)cc2)c1C(=O)NC[C@H]1CC[C@H](C(=O)O)CC1)CO [Compound 61]
result: 26.6 nM

query: Requested field: IC50. Item: COC(C)(C)C#Cc1nc(Cl)n(Cc2ccc(C(F)F)cc2)c1C(=O)NC[C@H]1CC[C@H](C(=O)O)CC1 [Compound 60]
result: 10.2 nM

query: What value of IC50 has been recorded for this entry: COC(C)(C)C#Cc1nc(Cl)n(Cc2ccc(OC(F)(F)F)cc2)c1C(=O)N[C@@H](C)c1ccc(C(=O)O)cc1 [Compound 50]
result: 1.1 nM

query: // IC50 lookup, key: COC(C)(C)C#Cc1nc(Cl)n(Cc2ccc(C(F)(F)F)cc2)c1C(=O)NC[C@H]1CC[C@H](C(=O)O)CC1 [Compound 10]
result: 10.9 nM
